Would you mind telling me the reported GI50 of each entry?
molecular target: BaF3_HER2WT cells (Homo sapiens, UniProt P04626); test: Cell growth inhibition assay (CellTiterGlo), BaF3_HER2WT; format: cell-based; conditions: cell growth inhibition, 3 days treatment, read-out: HER2 WT IC50
Sequence (P04626 whole entry, change not shown): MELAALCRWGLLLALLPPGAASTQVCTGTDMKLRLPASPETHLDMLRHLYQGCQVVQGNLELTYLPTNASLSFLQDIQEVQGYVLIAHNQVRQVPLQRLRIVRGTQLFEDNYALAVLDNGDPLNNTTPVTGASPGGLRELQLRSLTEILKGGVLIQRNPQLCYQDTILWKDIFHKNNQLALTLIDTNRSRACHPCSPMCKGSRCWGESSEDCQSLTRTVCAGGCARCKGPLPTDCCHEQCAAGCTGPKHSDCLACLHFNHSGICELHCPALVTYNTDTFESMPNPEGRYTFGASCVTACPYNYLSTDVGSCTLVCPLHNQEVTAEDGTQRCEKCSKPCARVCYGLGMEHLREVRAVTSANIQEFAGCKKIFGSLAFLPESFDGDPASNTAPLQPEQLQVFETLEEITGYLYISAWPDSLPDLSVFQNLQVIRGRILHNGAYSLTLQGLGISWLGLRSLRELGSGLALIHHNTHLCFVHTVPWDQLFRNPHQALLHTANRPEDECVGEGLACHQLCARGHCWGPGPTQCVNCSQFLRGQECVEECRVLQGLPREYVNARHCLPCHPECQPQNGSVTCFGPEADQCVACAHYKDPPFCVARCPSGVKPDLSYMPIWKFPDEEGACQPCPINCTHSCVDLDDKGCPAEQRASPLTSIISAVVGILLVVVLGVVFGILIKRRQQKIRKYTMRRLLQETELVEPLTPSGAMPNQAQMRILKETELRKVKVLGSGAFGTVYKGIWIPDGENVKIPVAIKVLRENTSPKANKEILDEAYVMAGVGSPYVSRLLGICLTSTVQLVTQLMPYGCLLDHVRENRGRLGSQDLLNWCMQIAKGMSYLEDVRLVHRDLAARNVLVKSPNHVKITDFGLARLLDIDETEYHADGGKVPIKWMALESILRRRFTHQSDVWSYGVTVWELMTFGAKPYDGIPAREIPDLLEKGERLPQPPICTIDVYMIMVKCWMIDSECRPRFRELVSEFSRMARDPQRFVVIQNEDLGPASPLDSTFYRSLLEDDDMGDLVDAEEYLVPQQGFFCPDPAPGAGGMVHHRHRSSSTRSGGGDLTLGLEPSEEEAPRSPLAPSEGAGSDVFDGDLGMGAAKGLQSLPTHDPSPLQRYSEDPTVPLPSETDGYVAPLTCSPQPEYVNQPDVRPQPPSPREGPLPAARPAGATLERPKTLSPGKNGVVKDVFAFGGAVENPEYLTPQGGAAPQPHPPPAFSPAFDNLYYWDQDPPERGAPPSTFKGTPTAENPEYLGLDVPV

Exercise: Given the entry Cc1cc(Nc2ncnn3ccc(C4CCCN(C(=O)C(F)Cl)CC4)c23)ccc1Oc1ccn2ncnc2c1 (single isomer, unassigned) [Examples 145, 146, 147 and 148, first eluting isomer] , report its measured GI50.
Key: < 200 nM

Exercise: Given the entry Cc1cc(Nc2ncnn3ccc(C4CC5CCC4CN5C(=O)/C=C/CN(C)C)c23)ccc1Oc1ccn2ncnc2c1 (single isomer, unassigned) [Examples 137 and 138, second eluting isomer] , report its measured GI50.
Key: 500 to 1500 nM

Exercise: Given the entry Cc1cc(Nc2ncnn3ccc(C4CCCN(C(=O)/C=C/CN(C)C)CC4)c23)ccc1Oc1ccn2ncnc2c1 (single isomer, unassigned) [Examples 109 and 110, first eluting isomer] , report its measured GI50.
Key: < 200 nM
